- Test Name: soluble on expression in E. coli; label from the status in PepcDB or PDB records

{"Sequence Record": "MMAYKSLLTVLTDPKIAPATLAQLVALAEAQDAHAEALCLGVDRSQTGYYYAGANALILQETLNRANAEAEEVLTLAQDTLGKSGVRWSAESGVAQIADLGRHVAHRARFSDLVVLSRPYGEDRGSEAEPIVEAAMFEGHAPVLVVPDNAPPLKQPRTVLLGWNESVEAMRAIRLAMPFLRAADLVRIVVIDPPRHGPDRSDPGGLLSQMLARHGVKVEIDVLSKTMTRVSDILNRHATDTSADMLVMGAYGHSRFREAILGGATRNMLEQATVPVFMAH", "soluble on expression in E. coli": "not soluble"}
{"Sequence Record": "MAHHHHHHMSRKRVRAEDIHYWLLKSEPHKFSIDDLAKQKTSPWDGVRNYAARNNMRAMSVGDKVLFYHSNTKEPGVAGLAEVVRLAYDDFTALDKTSEYFDPKATKEKNPWKMVDVKFVARWDTVLTLHELKSRRELQKMALFTQRRLSVQPVSASEYAYILRMNEEQQRK", "soluble on expression in E. coli": "soluble"}
{"Sequence Record": "GGSEDEDSPLDALDLVWAKCRGYPSYPALIIDPKMPREGMFHHGVPIPVPPLEVLKLGEQMTQEAREHLYLVLFFDNKRTWQWLPRTKLVPLGVNQDLDKEKMLEGRKSNIRKSVQIAYHRALQHRSKVQGE", "soluble on expression in E. coli": "soluble"}
{"Sequence Record": "MQASQFSAQVLDWYDKYGRKTLPWQIDKTPYKVWLSEVMLQQTQVATVIPYFERFMARFPTVTDLANAPLDEVLHLWTGLGYYARARNLHKAAQQVATLHGGKFPETFEEVAALPGVGRSTAGAILSLSLGKHFPILDGNVARVLARCYAVSGWPGKKEVENKLWSLSEQVTPAVGVERFNQAMMDLGAMICTRSKPKCSLCPLQNGCIAAANNSWALYPGKKPK", "soluble on expression in E. coli": "soluble"}
{"Sequence Record": "MLEEEQALLEKVVETLSNDIEEKEEKIEKLRRSYTNGNGALANIYEDYRSGFKSGIGARPGR", "soluble on expression in E. coli": "not soluble"}
